# Test system: Tau phosphorylation at Ser396 (pSer396)
# assay-overview: Tau phosphorylation assay (pSer396 ELISA / western blot) in SH-SY5Y cells;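 further: EC50 for reduction of Tau pSer396 in lysed cells, measured by colorimetric ELISA or chemiluminescent western blot, both using the same pSer396 antibody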
# Type: cell-based, human
# conditions: Homo sapiens; SH-SY5Y cells, overnight (16-18 h) exposure; read-out: pSer396 Tau EC50
Entries annotated with measured EC50

- compound: "O=C(Nc1cc2cc(-c3cnn4c3CNCC4)ccc2cn1)C1CCN(CC2(C(F)(F)F)CC2)CC1 [Compound 997]"
  study-target: "Tau phosphorylation at Ser396 (pSer396)"
  output-unit: "nM"
  EC50: 1300
- compound: "Cn1cncc1-c1ccc2cnc(NC(=O)C3(F)CC3)cc2c1 [Compound 521]"
  study-target: "Tau phosphorylation at Ser396 (pSer396)"
  output-unit: "nM"
  EC50: 1100
- compound: "Cn1cc(-c2ccc3cnc(NC(=O)C4CCN(C5COC5)CC4)cc3c2)cn1 [Compound 86]"
  study-target: "Tau phosphorylation at Ser396 (pSer396)"
  output-unit: "nM"
  EC50: 682
- compound: "CN1CCN(CC(=O)Nc2cc3cc(-c4cnn5c4CN(CCF)CC5)ccc3cn2)CC1 [Compound 1024]"
  study-target: "Tau phosphorylation at Ser396 (pSer396)"
  output-unit: "nM"
  EC50: 1200

These data points were gathered from patent US10287267B2.
